System: longitudinal muscle strip from the duodenal smooth muscle layer
experimental details: Measurement of intestinal contractile activity (Magnus organ bath, cumulative dosing)
test conditions: Oryctolagus cuniculus; male NZW rabbit duodenal longitudinal muscle strip, Krebs solution 31° C., test compound 0.01 nM to 10 μM cumulative dosing; contraction by carbachol 10 μM taken as 100%
Counter-ions that a name gives are not always drawn.
The following ranges of EC50 define the classes used here: low (below 2 nM), medium (2 nM to below 5 nM), high (5 nM or more)

Assign a bin to Cc1cc(N(C)C(=O)[C@H]2CC[C@H](Oc3cccc(COCC(C)(C)O)c3)CC2)ccc1CN1CCN[C@@H](C)C1 [Example 57, hydrochloride] high

----------
The entries below come with measured log10(EC50) values attached.
Test system: longitudinal muscle strip from the duodenal smooth muscle layer
experimental details: Measurement of intestinal contractile activity (Magnus organ bath, cumulative dosing)
test conditions: Oryctolagus cuniculus; male NZW rabbit duodenal longitudinal muscle strip, Krebs solution 31° C., test compound 0.01 nM to 10 μM cumulative dosing; contraction by carbachol 10 μM taken as 100%
Structures can show the parent of a compound that is named as a salt.
Base-10 log of EC50, unit nM.

Use these answered entries as a reference point.
Cc1cc(N(C)C(=O)[C@H]2CC[C@H](Oc3cccc(CO)c3)CC2)ccc1CN1CCN[C@@H](C)C1 [Example 5, hydrochloride] : 0.86
Cc1cc(N(C)C(=O)[C@H]2CC[C@H](Nc3cccc(COCC(C)(C)O)c3)CC2)ccc1CN1CCN[C@@H](C)C1 [Example 58, hydrochloride] : -0.05
Cc1cc(N(C)C(=O)[C@H]2CC[C@H](Oc3cccc(COC[C@@H](C)O)c3)CC2)ccc1CN1CCN[C@@H](C)C1 [Example 56, hydrochloride] : 0.08
Cc1cc(N(C)C(=O)[C@H]2CC[C@H](Oc3cccc(CC(=O)NC(C)C)c3)CC2)ccc1CN1CCN[C@@H](C)C1 [Example 30, hydrochloride] : 0.48
Cc1cc(N(C)C(=O)[C@H]2CC[C@H](Oc3cccc(CC(=O)NC(C)(C)C)c3)CC2)ccc1CN1CCN[C@@H](C)C1 [Example 33] : 0.18
Cc1cc(N(C)C(=O)[C@H]2CC[C@H](Oc3ccnc(C#N)c3)CC2)ccc1CN1CCN[C@@H](C)C1 [Example 22, hydrochloride] : 0.68

For the compound COCCOCc1cccc(O[C@H]2CC[C@H](C(=O)N(C)c3ccc(CN4CCN[C@@H](C)C4)c(C)c3)CC2)c1 [Example 53, hydrochloride] , what log10(EC50) is on record? 0.83

Now the same for Cc1cc(N(C)C(=O)[C@H]2CC[C@H](Oc3cccc(CS(C)(=O)=O)c3)CC2)ccc1CN1CCN[C@@H](C)C1 [Example 42, hydrochloride] 0.68

Next record, please: Cc1cc(N(C)C(=O)[C@H]2CC[C@H](Oc3ccc(F)cn3)CC2)ccc1CN1CCN[C@@H](C)C1 [Example 4, hydrochloride] 0.40

Queued: C[C@H]1CN(Cc2ccc(N(C)C(=O)[C@H]3CC[C@H](Oc4ccc(F)cc4)CC3)cc2)CCN1 [Example 1] 1.45

Continue with Cc1cc(N(C)C(=O)[C@H]2CC[C@H](Oc3cccc(CC(=O)N(C)C(C)C)c3)CC2)ccc1CN1CCN[C@@H](C)C1 [Example 34] 0.32

Now consider CCOC(=O)Cc1cccc(O[C@H]2CC[C@H](C(=O)N(C)c3ccc(CN4CCN[C@@H](C)C4)c(C)c3)CC2)c1 [Example 16, hydrochloride] and answer again. 0.38
